# credit: patent US20240243327A1

method.summary: Analysis of solubility (UV-Vis calibration at 361 nm, saturated solution at room temperature)
Assay type: physicochemical
conditions.used: saline or isotonic, thermodynamic from solid; 1 M KCl solution as printed; read-out: solubility in the 1 M KCl solution

smiles.notation: O=C(O)CN1C(=O)c2ccc3c4c(ccc(c24)C1=O)C(=O)N(CC(=O)O)C3=O
solubility: ~25 mM

----------
method.summary: Analysis of solubility (UV-Vis calibration at 361 nm, saturated solution at room temperature)
Assay type: physicochemical
conditions.used: 1.5 M KCl aqueous solution, saline or isotonic, thermodynamic from solid; KCl aqueous solution (method: 1.5 M KCl), room temperature; read-out: solubility in the KCl solution

smiles.notation: C[N+](C)(C)CCC[N+](C)(C)CCCN1C(=O)c2ccc3c4c(ccc(c24)C1=O)C(=O)N(CCC[N+](C)(C)CCC[N+](C)(C)C)C3=O
solubility: ~1200 mM
